- Test system: KRas-mediated phosphorylation of ERK in H727 cells
- experiment description: Inhibition of KRas-mediated phosphorylation of ERK (Cisbio HTRF pERK), H727 cells
- Assay type: cell-based
- study conditions: Homo sapiens, NCI-H727, 3 h, single point, 100 nM compound, 3 hrs, H727 cells
So I've got a bunch of compounds here, and I need their inhibition at 0.1 µM values.
Answers are plain numbers, in %.

Recorded results for 2 compounds are shown here.
{"smiles record": "Cc1c(O)cc2ccccc2c1-c1ncc2c(N3C[C@@H]4C[C@H](C3)[C@H](O)C4)nc(OC[C@@]34CCCN3C[C@H](F)C4)nc2c1F", "inhibition at 0.1 µM / %": 15}
{"smiles record": "Cc1cc2[nH]nnc2c(-c2ncc3c(N4CCC[C@@](C)(O)C4)nc(OCC45CCCN4CCC5)nc3c2F)c1C", "inhibition at 0.1 µM / %": -3}

[Q] Name the reported inhibition at 0.1 µM value associated with the compound CCc1c(F)ccc2cc(O)cc(-c3ncc4c(N5CCC[C@@](C)(O)C5)nc(OC[C@@]56CCCN5[C@H](CNS(=O)(=O)N(C)C)CC6)nc4c3F)c12
[A] 43

###

- system under test: KRas^G12D (Homo sapiens, UniProt P01116, G12D)
- Construct: Biotinylated KRas (corresponding to amino acids 1-169, produced at Accelegan Inc.); biotin (biotinylated); purchased Accelegan Inc
- Sequence (P01116 1-169 isoform P01116-2 G12D): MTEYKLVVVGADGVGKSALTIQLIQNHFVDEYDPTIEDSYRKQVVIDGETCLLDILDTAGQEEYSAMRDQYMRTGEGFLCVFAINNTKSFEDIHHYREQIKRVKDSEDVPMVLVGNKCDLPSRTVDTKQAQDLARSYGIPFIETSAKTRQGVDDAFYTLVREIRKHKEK
- experiment description: KRas binding assay (TR-FRET tracer displacement), KRas G12D
measured metric: IC50

Sample answers from the record:
{"compound": "CCc1c(F)ccc2cc(O)cc(-c3ncc4c(N5CCO[C@@H](CS(N)(=O)=O)C5)nc(OC[C@@]56CCCN5C[C@H](F)C6)nc4c3F)c12", "result": "10 nM"}
{"compound": "CCc1c(F)ccc2cc(O)cc(-c3ncc4c(N5CCC(C)(O)C(F)(F)CC5)nc(OC[C@@]56CCCN5C[C@H](F)C6)nc4c3F)c12 (stereo partly drawn)", "result": "119 nM"}
{"compound": "CCc1c(F)ccc2cc3[nH]ncc3c(-c3ncc4c(N5CCC[C@]6(C5)NC(=O)NC6=O)nc(OCC56CCCN5CCC6)nc4c3F)c12", "result": "< 2 nM"}

For every item in the list below, what is its measured IC50?
1. CCc1c(F)ccc2cc(O)cc(-c3ncc4c(N5CCOC[C@]6(CCO6)C5)nc(OC[C@@]56CCCN5C[C@H](F)C6)nc4c3F)c12
2. Cc1c(O)cc(-c2ncc3c(N4C[C@@H]5C[C@H](C4)[C@H](O)C5)nc(OC[C@@]45CCCN4C[C@H](F)C5)nc3c2F)c2ccccc12

[A]
["< 2 nM", "11700 nM"]

[Q] Please look up its IC50: CCc1c(F)ccc2cc(O)cc(-c3ncc4c(N5CCOCC(C)(O)C5)nc(OCC56CCCN5[C@H](COC(=O)N(C)C)CC6)nc4c3F)c12 (stereo in doubt)
[A] 2 nM

###

- system under test: KRas^G12V (Homo sapiens, UniProt P01116, G12V)
- Construct: Biotinylated KRas (corresponding to amino acids 1-169, produced at Accelegan Inc.); biotin (biotinylated); purchased Accelegan Inc
- Sequence (P01116 1-169 isoform P01116-2 G12V): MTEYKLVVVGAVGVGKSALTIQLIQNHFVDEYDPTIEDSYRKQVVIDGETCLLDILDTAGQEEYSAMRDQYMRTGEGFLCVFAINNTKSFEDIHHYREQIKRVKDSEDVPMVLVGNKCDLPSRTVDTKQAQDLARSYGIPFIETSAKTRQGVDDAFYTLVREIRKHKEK
- experiment description: KRas binding assay (TR-FRET tracer displacement), KRas G12V
Sorting guide: entries reporting IC50 beneath 7 nM go in the 1 pile, the rest go in the 0 pile.

Solved cases (3 shown):
{"smiles record": "CCc1c(F)ccc2cc(O)cc(-c3ncc4c(N5CCC[C@@](C)(O)C5)nc(OC[C@@]56CCCN5[C@H](CNS(=O)(=O)N(C)C)CC6)nc4c3F)c12", "class assignment": 1}
{"smiles record": "CCc1c(F)ccc2cc(O)cc(-c3ncc4c(N5C[C@H]6CC[C@@](C(=O)NC)(C5)C6(F)F)nc(OC[C@@]56CCCN5C[C@H](F)C6)nc4c3F)c12", "class assignment": 0}
{"smiles record": "CCc1c(F)ccc2c(Br)c(O)cc(-c3ncc4c(N5C[C@@H]6C[C@H](C5)[C@H](O)C6)nc(OC[C@@]56CCCN5C[C@H](F)C6)nc4c3F)c12", "class assignment": 0}

[Q] Regarding CCc1c(F)ccc2cc(O)cc(-c3ncc4c(N5C[C@H]6CC[C@@]6(O)C5)nc(OC[C@@]56CCCN5C[C@H](F)C6)nc4c3F)c12 , kindly confirm whether its IC50 is beneath 7 nM.
[A] 0

[Q] Also check CCc1c(F)ccc2cc(O)cc(-c3ncc4c(N5CCC[C@@](C)(O)C5)nc(OC[C@@]56CCCN5[C@@H](CF)CC6)nc4c3F)c12
[A] 1
